- systemName: EPHB1 (UniProt P54762)
- Sequence (P54762 whole entry, looked up): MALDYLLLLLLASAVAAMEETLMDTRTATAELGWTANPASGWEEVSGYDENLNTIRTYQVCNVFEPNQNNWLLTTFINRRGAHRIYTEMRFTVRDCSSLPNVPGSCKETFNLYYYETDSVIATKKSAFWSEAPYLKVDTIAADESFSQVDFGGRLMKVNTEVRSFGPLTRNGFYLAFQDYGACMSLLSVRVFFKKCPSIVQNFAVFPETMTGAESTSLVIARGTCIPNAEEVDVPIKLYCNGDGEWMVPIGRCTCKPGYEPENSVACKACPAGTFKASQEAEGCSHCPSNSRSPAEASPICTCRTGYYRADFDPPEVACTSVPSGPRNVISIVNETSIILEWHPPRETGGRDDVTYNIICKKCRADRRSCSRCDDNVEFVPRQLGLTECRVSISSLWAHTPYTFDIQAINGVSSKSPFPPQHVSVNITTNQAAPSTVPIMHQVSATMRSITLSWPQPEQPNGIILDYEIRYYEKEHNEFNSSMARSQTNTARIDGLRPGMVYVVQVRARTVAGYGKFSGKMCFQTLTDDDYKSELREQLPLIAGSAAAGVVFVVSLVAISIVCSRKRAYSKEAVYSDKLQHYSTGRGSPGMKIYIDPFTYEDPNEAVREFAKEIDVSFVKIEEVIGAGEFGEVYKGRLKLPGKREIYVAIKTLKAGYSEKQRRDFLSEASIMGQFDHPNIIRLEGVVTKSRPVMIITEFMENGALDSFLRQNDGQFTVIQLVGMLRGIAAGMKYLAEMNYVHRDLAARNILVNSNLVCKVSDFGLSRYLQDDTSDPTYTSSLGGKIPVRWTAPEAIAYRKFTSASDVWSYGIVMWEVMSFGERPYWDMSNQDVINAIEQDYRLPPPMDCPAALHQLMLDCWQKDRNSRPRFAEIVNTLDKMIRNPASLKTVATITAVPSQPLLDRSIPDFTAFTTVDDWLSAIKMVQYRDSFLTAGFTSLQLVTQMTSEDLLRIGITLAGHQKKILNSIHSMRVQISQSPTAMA
- assayProcedure: phosphorylation enrichment, bacterial display (enrichment ratio); higher = better substrate or ligand; peptides without Tyr show the background
# phosphorylation enrichment annotations
Lab note: record the figure alone, no unit after it.

Completed entries (count: 4):
# phosphorylation enrichment (sequence: VSSPKYGSDDE [TMCC2_Y473] ) is 0.559

Value of measured phosphorylation enrichment for the entry YVPSFYHAFSG [ACTN4_Y265_S262P] : 2.09

The recorded phosphorylation enrichment for QLYGAYLRIHA [BSCL2_Y213] is 1

Data point: FLAVGYHMPHI [IDS_Y225_K227M] ; phosphorylation enrichment = 0.346

---
Form: sequence = EAEPFYRSLRD [NPHS1_Y1139_YF] ; phosphorylation enrichment = 0.461

// recorded phosphorylation enrichment for ETKRPYTVILI [SBDS_Y128] : 0.57

----------
The reader will find reported SH2 binding enrichment values listed item by item below.
- systemName: c-Src SH2
- assayProcedure: SH2 binding enrichment of the phosphorylated peptide, bacterial display (enrichment ratio); higher = better substrate or ligand; peptides without Tyr show the background
Kindly provide the number alone.

SH2 binding enrichment for KDFTKYVAYIE [KDM4B_Y31_N29T] is 0.608

Record QMVGMYAFSFM [AVPR2_Y124_S126F_YF] . Reported SH2 binding enrichment: 0.353

Lab note: measured SH2 binding enrichment of SVVVPYAPPEV [TP53_Y220_E221A] was 0.463

For this sequence ( PMQMPYDSRWE [PDGFRA_Y582_L580M] ), measured SH2 binding enrichment is 0.601

Form field SH2 binding enrichment, entry QKMFDYLKEKK [RYR2_Y3780_L3778F] : 0.363

Turning now to a further sequence:
Recorded result, FSQQVYRVNLS [FAT4_Y480] , SH2 binding enrichment: 0.48

----------
- systemName: SHP2-C SH2
- assayProcedure: SH2 binding enrichment of the phosphorylated peptide, bacterial display (enrichment ratio); higher = better substrate or ligand; peptides without Tyr show the background
Where SH2 binding enrichment equals or exceeds 0.9, the correct label is 1; where it does not, the label is 0.

Past entries and their recorded results:
input: Has VKANTYEKFWL [GATM_Y100_P105L_YF] a recorded SH2 binding enrichment greater than or equal to 0.9?
output: 0

input: Kindly determine if SH2 binding enrichment recorded for QRPFVYFFSFL [PTEN_Y176_R173P_YF] is above or exactly 0.9.
output: 1

input: Check the entry KKFVPYYDLFM [IPO5_Y530_E525K] : does SH2 binding enrichment equal or exceed 0.9?
output: 1

input: Is it the case that PEIIAYQPFGK [PRKCG_Y529_YF] has SH2 binding enrichment reaching or exceeding 0.9?
output: 1

input: Form field: SH2 binding enrichment at least 0.9? Entry: KENITYMKREQ [L1TD1_Y24]
output: 0

input: Textbook exercise: given the entry PQDVTYAQLHS [LILRB4_Y412] , state whether its SH2 binding enrichment is greater than or equal to 0.9.
output: 1

input: Could you please find out whether IIWDSYTTNKV [GNB1_Y85] has SH2 binding enrichment that meets 0.9 or exceeds it?
output: 0

From here, focus on the item given below.
input: Hello, I need to know if MHDKEYYSVHN [MET_Y1234_Y1230H] has measured SH2 binding enrichment not below 0.9. Thanks!
output: 0

----------
- systemName: FGFR3 (UniProt P22607)
- Sequence (P22607 whole entry, looked up): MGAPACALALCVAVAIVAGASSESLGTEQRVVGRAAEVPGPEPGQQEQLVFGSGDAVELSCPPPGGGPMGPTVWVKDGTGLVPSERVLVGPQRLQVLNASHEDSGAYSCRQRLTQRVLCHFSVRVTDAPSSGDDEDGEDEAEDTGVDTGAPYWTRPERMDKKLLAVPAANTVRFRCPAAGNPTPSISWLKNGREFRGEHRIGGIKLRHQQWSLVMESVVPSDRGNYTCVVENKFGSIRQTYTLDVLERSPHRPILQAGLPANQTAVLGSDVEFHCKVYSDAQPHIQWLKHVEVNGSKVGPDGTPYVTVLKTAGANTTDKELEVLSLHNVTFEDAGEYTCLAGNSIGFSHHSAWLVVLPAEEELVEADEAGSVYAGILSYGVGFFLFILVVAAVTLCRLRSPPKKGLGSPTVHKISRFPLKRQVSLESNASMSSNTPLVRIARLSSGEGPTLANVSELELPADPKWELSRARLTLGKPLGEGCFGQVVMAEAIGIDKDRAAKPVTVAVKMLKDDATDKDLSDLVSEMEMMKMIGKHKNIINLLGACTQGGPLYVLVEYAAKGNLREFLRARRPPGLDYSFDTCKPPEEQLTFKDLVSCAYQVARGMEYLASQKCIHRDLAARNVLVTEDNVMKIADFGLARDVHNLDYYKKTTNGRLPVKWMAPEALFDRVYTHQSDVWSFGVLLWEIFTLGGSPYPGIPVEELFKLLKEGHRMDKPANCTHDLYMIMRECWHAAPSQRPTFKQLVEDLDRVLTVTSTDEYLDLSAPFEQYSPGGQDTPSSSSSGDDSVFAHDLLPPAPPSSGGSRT
- assayProcedure: phosphorylation enrichment, bacterial display (enrichment ratio); higher = better substrate or ligand; peptides without Tyr show the background
Entry class follows phosphorylation enrichment: A (below 0.5), B (0.5 to below 0.8), C (0.8 or more)

input: Which phosphorylation enrichment category applies to PPQFSYGLQTQ [SRA1_Y35] here?
output: A

input: Consider REVVNYVQKRS [RMI1_Y450_N455S] . To which phosphorylation enrichment class does it belong?
output: C

input: Classify this sequence: PVQDAYQKVVA [HBB_Y131_A129D]
output: A

----------
- systemName: EPHB2 (UniProt P29323)
- Sequence (P29323 whole entry, looked up): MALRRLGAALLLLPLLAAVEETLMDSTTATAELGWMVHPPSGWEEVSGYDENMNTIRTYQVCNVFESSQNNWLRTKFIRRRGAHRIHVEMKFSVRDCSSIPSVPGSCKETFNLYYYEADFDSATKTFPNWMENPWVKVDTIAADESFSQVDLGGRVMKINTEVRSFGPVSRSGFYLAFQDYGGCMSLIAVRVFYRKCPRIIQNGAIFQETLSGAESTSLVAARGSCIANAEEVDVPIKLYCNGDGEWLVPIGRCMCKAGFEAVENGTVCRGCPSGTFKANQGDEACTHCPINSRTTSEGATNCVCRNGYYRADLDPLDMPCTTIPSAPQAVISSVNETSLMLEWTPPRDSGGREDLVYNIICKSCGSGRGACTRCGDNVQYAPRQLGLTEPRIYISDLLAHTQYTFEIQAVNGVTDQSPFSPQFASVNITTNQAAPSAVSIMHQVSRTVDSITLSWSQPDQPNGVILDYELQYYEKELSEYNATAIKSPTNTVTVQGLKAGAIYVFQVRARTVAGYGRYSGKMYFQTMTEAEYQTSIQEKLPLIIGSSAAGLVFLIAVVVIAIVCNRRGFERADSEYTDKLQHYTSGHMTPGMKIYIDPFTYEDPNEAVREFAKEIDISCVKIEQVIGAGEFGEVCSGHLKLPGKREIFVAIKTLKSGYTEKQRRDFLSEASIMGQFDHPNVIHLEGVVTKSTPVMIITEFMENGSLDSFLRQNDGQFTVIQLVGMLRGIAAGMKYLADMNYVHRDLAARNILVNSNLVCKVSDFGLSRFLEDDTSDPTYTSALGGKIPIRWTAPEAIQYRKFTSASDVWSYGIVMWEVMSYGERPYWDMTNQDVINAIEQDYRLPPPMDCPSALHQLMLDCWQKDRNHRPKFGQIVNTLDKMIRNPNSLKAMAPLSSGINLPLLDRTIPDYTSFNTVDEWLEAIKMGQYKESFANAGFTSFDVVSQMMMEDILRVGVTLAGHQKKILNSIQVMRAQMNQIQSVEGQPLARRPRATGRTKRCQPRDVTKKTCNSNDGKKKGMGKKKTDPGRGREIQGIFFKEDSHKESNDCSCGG
- assayProcedure: phosphorylation enrichment, bacterial display (enrichment ratio); higher = better substrate or ligand; peptides without Tyr show the background
This listing pairs sequences with measured phosphorylation enrichment.
API note: the answer field is a bare number with no unit suffix.

Here is how some sequences turned out for phosphorylation enrichment.
Data point: GLRCGYGVLGG [KRTAP20-2_Y15_Y13C] ; phosphorylation enrichment = 0.387

Recorded result, TTTQAYRVDER [PRKN_Y391] , phosphorylation enrichment: 0.439

Documented phosphorylation enrichment of QRCFVYFFSFL [PTEN_Y176_R173C_YF] : 0.526

Memo: EFGEVYKGTLK [EPHA2_Y628_M631T] , reported phosphorylation enrichment: 0.409

# phosphorylation enrichment (sequence: DSNLIYSQIWS [FCRL3_Y662_P660L] ) is 17.1

--- query ---
Lab note: measured phosphorylation enrichment of PEQAAYQKVVA [HBB_Y131_V127E] was 0.811

----------
- systemName: Fyn (UniProt P06241)
- Sequence (P06241 whole entry, looked up): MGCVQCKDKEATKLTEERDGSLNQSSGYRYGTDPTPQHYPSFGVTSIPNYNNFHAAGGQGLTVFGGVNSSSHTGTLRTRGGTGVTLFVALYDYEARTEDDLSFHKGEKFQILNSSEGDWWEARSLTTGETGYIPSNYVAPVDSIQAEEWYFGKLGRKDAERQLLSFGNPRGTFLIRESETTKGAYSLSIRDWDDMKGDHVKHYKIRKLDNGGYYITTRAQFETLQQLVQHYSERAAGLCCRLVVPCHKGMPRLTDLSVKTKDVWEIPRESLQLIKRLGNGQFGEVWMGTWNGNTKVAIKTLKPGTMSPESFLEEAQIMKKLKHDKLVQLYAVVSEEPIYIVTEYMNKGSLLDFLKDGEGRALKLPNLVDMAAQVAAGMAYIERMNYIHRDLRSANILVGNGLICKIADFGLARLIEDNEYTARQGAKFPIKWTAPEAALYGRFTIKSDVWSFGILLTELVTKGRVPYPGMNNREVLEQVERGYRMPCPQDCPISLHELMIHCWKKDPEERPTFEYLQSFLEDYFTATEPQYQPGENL
- assayProcedure: phosphorylation enrichment, bacterial display (enrichment ratio); higher = better substrate or ligand; peptides without Tyr show the background
A collection of sequences and their measured phosphorylation enrichment
Lab note: record just the number, no unit beside it.

Item: GFWPRYVKVGS [NOG_Y172_R167G] | phosphorylation enrichment: 0.493

In plain terms, DVCKNYAEAKD [ALB_Y343] has a documented phosphorylation enrichment of 0.509

sequence `AKIDGYIISFR` , phosphorylation enrichment observed: 0.412

Entry LLANAYIYDVQ [L1CAM_Y418_V421D] , phosphorylation enrichment reported as 6.7

Kindly note the recorded phosphorylation enrichment for LMLVLYGRIFR [HTR1A_Y215] , which is 0.715

According to the records, this sequence VIECSYTSADG [DHCR7_Y382] displays phosphorylation enrichment of 0.478

Here's the next entry for you.
Quick note, phosphorylation enrichment for AALSAYAAQRP [PTPRN2_Y249] landed at 0.305

----------
- Tested on: c-Src
- assayProcedure: phosphorylation enrichment, bacterial display (enrichment ratio); higher = better substrate or ligand; peptides without Tyr show the background
Recorded phosphorylation enrichment determines the group label, using range 1: < 0.5; range 2: ≥ 0.5 and < 0.8; range 3: ≥ 0.8

input: Consider LSDGPYSSPYE [EPOR_Y485_N487S] . To which phosphorylation enrichment class does it belong?
output: range 3

input: // return the class label for STGWSYAGVAV [KLHL3_Y577_R575W]
output: range 1

input: Form field 'band' for QNKEDYAGLKE [GSTO1_Y139]
output: range 3

input: Which of the defined bands does the recorded phosphorylation enrichment of LAIERYVVVCK [RHO_Y136] sit within?
output: range 3

input: Could you place TNLVPYPCIHF [TUBA1A_Y262_R264C] in its proper category? Many thanks.
output: range 2

---
input: GET /class?item= LWQTIYNLEAE [TNNT2_Y251_S249T]
output: range 3

input: Which class does SSVKLYRVFCD [FGB_Y266_P265L_YF] fall in?
output: range 1

----------
- Test system: c-Src
- assayProcedure: phosphorylation enrichment, bacterial display (enrichment ratio); higher = better substrate or ligand; peptides without Tyr show the background
quantityName: phosphorylation enrichment
Lab note: write the figure by itself, no unit.

Measured phosphorylation enrichment, GESLTYVSTTF [C1orf162_Y120_A121V] : 0.664

# phosphorylation enrichment (sequence: EYQLPYYNTVP [BMPR1A_Y457_M460T] ) is 5.66

Now consider the entry below.
// phosphorylation enrichment value for APGNAYGDAGY [SYP_Y250_D248N] : 0.497

----------
// reported phosphorylation enrichment for each item listed
- System: Fer (mouse)
- assayProcedure: phosphorylation enrichment, bacterial display (enrichment ratio); higher = better substrate or ligand; peptides without Tyr show the background
Please respond with just the number, no unit label.

Record summary for EAEPFYRSLRD [NPHS1_Y1139_YF] : reported phosphorylation enrichment = 0.451

---
Just so you know, measured phosphorylation enrichment for GTTIHYNFMCN [TP53_Y234_C229G_YF] came out at 0.63

// field: phosphorylation enrichment; key: GMTLSYLFWEP [NDUFS8_Y74_R77W] ; value = 3.7

According to the records, this sequence CTTIHSNFMCN [TP53_Y234_Y234S_YF] displays phosphorylation enrichment of 0.429

Note to self: phosphorylation enrichment recorded for GYQPDYGQPAG [SYP_Y278] was 0.38

Field phosphorylation enrichment (entry FPDFVYKCIKA [DPYSL2_Y479_R481C] ) reads 0.533

Form: sequence = DVCKNYAEAKD [ALB_Y343] ; phosphorylation enrichment = 0.495

# phosphorylation enrichment (sequence: RSGIFYKPESL [L2HGDH_Y103_H98R_YF] ) is 0.458

Noted for RFLERYIYNRE [HLA-DPB1_Y57] : its phosphorylation enrichment reads 0.546

// sample PSELFYSKISP [SMG1_Y2254_G2258S_YF] , its phosphorylation enrichment was 11.3

Short answer for VVTGPYEKPSL [KIR3DS1_Y221_L220P] : phosphorylation enrichment was 0.665

// phosphorylation enrichment lookup, sequence = IIWDSYTTNKV [GNB1_Y85] , result: 0.665

Record SSDKVCAHQMV [MLH1_Y379_Y379C] . Reported phosphorylation enrichment: 0.356
